target: T1, recombinant SARS-CoV-2 Spike RBD domain, BQ.1.1 variant (SARS-CoV-2); assay: competition ELISA, blocking of RBD binding to ACE2 ectodomain
T1 construct: also called RBD BQ.1.1. variant
Assignment: determine reported Blocking % for the given binders.
Write your answer as a measured quantity: the number, then the unit.

Query :: Request the reported Blocking % associated with SPK002M A4 antibody (antibody, human IgG1, kappa, V domains shown) VH: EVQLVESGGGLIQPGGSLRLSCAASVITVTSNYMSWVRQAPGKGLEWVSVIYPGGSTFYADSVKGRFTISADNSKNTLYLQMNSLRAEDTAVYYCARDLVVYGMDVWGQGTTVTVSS VL: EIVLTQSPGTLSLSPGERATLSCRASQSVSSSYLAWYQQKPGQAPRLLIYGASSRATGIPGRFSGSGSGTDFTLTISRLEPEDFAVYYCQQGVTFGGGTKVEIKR
Result :: 96%

Query :: Request the reported Blocking % associated with SPK002M C3 antibody (antibody, human IgG1, kappa, V domains shown) VH: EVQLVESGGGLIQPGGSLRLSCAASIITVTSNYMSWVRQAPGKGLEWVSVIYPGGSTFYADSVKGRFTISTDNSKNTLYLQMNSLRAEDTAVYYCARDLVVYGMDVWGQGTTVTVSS VL: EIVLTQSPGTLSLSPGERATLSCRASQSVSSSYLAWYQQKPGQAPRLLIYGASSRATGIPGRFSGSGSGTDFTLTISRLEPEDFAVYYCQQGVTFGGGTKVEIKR
Result :: 94%

Query :: Request the reported Blocking % associated with SPK002M C1 antibody (antibody, human IgG1, kappa, V domains shown) VH: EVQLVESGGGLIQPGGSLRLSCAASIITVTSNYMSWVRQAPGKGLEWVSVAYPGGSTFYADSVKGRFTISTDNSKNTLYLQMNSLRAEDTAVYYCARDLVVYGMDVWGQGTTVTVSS VL: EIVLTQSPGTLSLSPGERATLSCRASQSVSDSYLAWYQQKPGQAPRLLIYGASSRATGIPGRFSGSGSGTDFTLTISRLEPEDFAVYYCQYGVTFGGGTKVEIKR
Result :: 97%
